Assay: GDH-TPI coupling enzyme inhibitors, primary screen, artefact control for M. tuberculosis FBA inhibitor project, biochemical, absorbance, full deck (AID 588335);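 note: 0% = DMSO wells and 100% = wells lacking the enzyme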
Settings: GDH-TPI coupled enzyme counterscreen, NADH absorbance; at 4.8 µM
Among all 360,000 compounds or so, about 4,500 (1.2%) were called active. Cut-off read from the data, not from the text of the source: active = inhibition above about 30%; inactive = the rest. Shown is part of a subset that was picked to be rich in actives.
Write down the outcome that applies. Available outcomes: active, inactive

Example entries and their recorded answers appear below.
Test call for this molecule, please: CC(C)C(=O)N1CC(=O)Nc2ccc(F)cc2C1c1ccc(F)cc1 (stereo not drawn) inactive

Test call for this molecule, please: COc1ccc(C(N)c2csc(NC(=O)Nc3cccc(C(F)(F)F)c3)n2)cc1 (stereo not drawn) inactive

Further cases:
Test call for this molecule, please: O=C(C1CCCO1)N1CCC(c2nc3ccccc3[nH]2)CC1 (stereo not drawn) inactive

Test call for this molecule, please: CC1CCN(C(=O)Cn2cc(C(=O)c3ccco3)c3ccccc32)CC1 inactive

Test call for this molecule, please: CC(=O)c1ccc(Nc2nc(C(N)c3ccccc3)cs2)cc1 (stereo not drawn) active

Test call for this molecule, please: O=C(Nc1nnc(Cc2ccc(Cl)cc2)s1)c1ccncc1 inactive

----------
# inhibition annotations
Test: GDH-TPI coupling enzyme inhibitors, primary screen, artefact control for M. tuberculosis FBA inhibitor project, biochemical, absorbance, full deck (AID 588335);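 note: 0% = DMSO wells and 100% = wells lacking the enzyme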
Settings: GDH-TPI coupled enzyme counterscreen, NADH absorbance; at 4.8 µM; stronger effect = higher value
Screen size: about 360,000 compounds; about 4,500 (1.2%) were called active. Many of the other results were omitted from the sample, so actives are more common in it than they were.

Reference set (6 entries):
For record Cc1ccc(/C=N/NC(=S)NC2CCCCC2)o1 the listed inhibition is 32.4% (active)

For record O=C1NC(c2ccccc2)CCC1(Cl)Cl (stereo not given) the listed inhibition is 3.97% (inactive)

For record CCOC(=O)C1CCN(S(=O)(=O)c2ccc3c(c2)N(C)C(=O)CC(=O)N3C)CC1 the listed inhibition is 6.72% (inactive)

For record CC1Cc2ccccc2N1C(=O)c1cc2sccc2n1Cc1ccccc1 (stereo not given) the listed inhibition is -0.44% (inactive)

For record Cc1ccc(NC2=NC(c3ccccc3)n3c(nc(C)cc3=O)N2)cc1 (stereo not given) the listed inhibition is 4.69% (inactive)

For record C[C@H]1Cn2cnc(C(=O)N[C@@H](Cc3c[nH]c4ccccc34)C(=O)OC(C)(C)C)c2C(=O)N1 the listed inhibition is 7.22% (inactive)

Further cases:
For record COc1cc(/C=N\Nc2nc(-c3cccs3)c(NC(C)=O)s2)ccc1O the listed inhibition is 34.8% (active)

For record Cc1noc(NS(=O)(=O)c2ccc(NC(=O)C34CCC(CC3)C4)cc2)c1C the listed inhibition is -6.12% (inactive)

For record COc1ccc(N)cc1NC(=O)CN1CCOCC1 the listed inhibition is -1.77% (inactive)

For record O=C(Nc1ccc(N2CCOCC2)cc1)c1cccc2c(-c3ccc(F)c(F)c3)coc12 the listed inhibition is 1.77% (inactive)

For record CCc1ccc(/C=C2\SC(N3CCOCC3)=NC2=O)cc1 the listed inhibition is 30.8% (active)

----------
# inhibition annotations
Test: GDH-TPI coupling enzyme inhibitors, primary screen, artefact control for M. tuberculosis FBA inhibitor project, biochemical, absorbance, full deck (AID 588335);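 note: 0% = DMSO wells and 100% = wells lacking the enzyme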
Settings: GDH-TPI coupled enzyme counterscreen, NADH absorbance; at 4.8 µM; stronger effect = higher value
Screen size: about 360,000 compounds; about 4,500 (1.2%) were called active. Shown is part of a subset that was picked to be rich in actives.
Unit % implied. Number only.

For record CCCOc1cccc(C(=O)Nc2nnn(CCC)n2)c1 the listed inhibition is 3.11

For record C=CC(COCc1ccccc1)N(Cc1ccccc1)S(=O)(=O)c1ccccc1Br (configuration not stated) the listed inhibition is 9.24

For record Cc1c(Cl)c([N+](=O)[O-])nn1Cc1ccc(C(=O)N/N=C\c2cc(Cl)ccc2O)o1 the listed inhibition is 4.27

For record CCN(CC)CCCNC(=O)c1ccc2c(=O)n(Cc3ccc4c(c3)OCO4)c(=S)[nH]c2c1 the listed inhibition is 3.66

For record COc1ccc(/C=N/OCc2ccccc2C#N)c(OC)c1 the listed inhibition is -3.57

Further cases:
For record Cc1cc(C(=O)N/N=C/c2ccc(O)c([N+](=O)[O-])c2)c(C)n1-c1ccc(F)cc1 the listed inhibition is 51.7

For record CCc1ccc(C(=O)COC(=O)c2ccco2)cc1 the listed inhibition is -8.19

For record Cn1c(=O)c2c(-c3cccc(Br)c3)c(C#N)c(N)nc2n(C)c1=O the listed inhibition is 32.1

For record CN(CC(=O)Nc1ccccc1F)CC(=O)Nc1ccccc1Br the listed inhibition is -8.02

For record COc1ccc(/C=N/Nc2nc3ccccc3o2)cc1OC the listed inhibition is 44.1

For record CCOc1ccccc1NC(=O)C1CCCN(S(=O)(=O)c2ccccc2)C1 (configuration not stated) the listed inhibition is 11.6

For record CCC(=O)Oc1cccc(C(=O)Nc2ccc(-c3nnc(-c4ccco4)o3)cc2)c1 the listed inhibition is 35.6
